Origin of values: patent US4091006A

Recorded Mite Adult rating by entry
Tested on: adults and nymphal stages of the two-spotted mite
Assay: Mite Foliage Spray Test
Type: in vivo, Tetranychus urticae (Koch)
Settings: 4 days

# molecule, Mite Adult rating
rows = [
    ("CC(C)(C)C(=O)OC1=C(c2c(Cl)cccc2Cl)C(=O)c2ccccc21", "5 (100% mortality)"),
    ("CCCCCCCCCCCCOC(=O)OC1=C(c2c(C)cc(C)cc2C)C(=O)c2ccccc21", "5 (100% mortality)"),
    ("CC=CCCCCCCCC(=O)OC1=C(c2c(C)cc(C)cc2C)C(=O)c2ccccc21", "5 (100% mortality)"),
    ("CCCCC(CC)C(=O)OC1=C(c2ccccc2C)C(=O)c2ccccc21 (stereo not shown)", "3 (an approximately 50% mortality)"),
    ("COC(=O)CCC(=O)OC1=C(c2c(C)cc(C)cc2C)C(=O)c2ccccc21", "5 (100% mortality)"),
    ("Cc1cc(C)c(C2=C(OC(=O)C3CCCCC3)c3ccccc3C2=O)c(C)c1", "5 (100% mortality)"),
    ("Cc1ccc(C(=O)OC2=C(c3c(C)cc(C)cc3C)C(=O)c3ccccc32)cc1", "5 (100% mortality)"),
    ("COc1ccc(C(=O)OC2=C(c3c(C)cc(C)cc3C)C(=O)c3ccccc32)cc1", "3 (an approximately 50% mortality)"),
    ("CC(C)(C)C(=O)OC1=C(c2ccccc2)C(=O)c2ccccc21", 1),
    ("Cc1cc(C)c(C2=C(OC(=O)c3ccccc3)c3ccccc3C2=O)c(C)c1", "5 (100% mortality)"),
]
